Would you kindly list concentration at 4 h for each of these molecules?
method.notes: Drug concentration in NOD-SCID mouse plasma at 10 mg/kg, po measured at 4 hrs by LC-MS/MS analysis
Format: ADME, organism-based
Don't forget the unit after the value.

Illustrative cases are given below, each with its answer.
>>> df
                           substance_smiles  reported_value
0  COc1cc(-c2cncc3c2CN(C)Cc2cc(N4CCN(C)CC4)ccc2-3)cc(OC)c1OC           43 nM
1  COc1cc(-c2cncc(-c3ccc(N4CCNCC4)cc3)c2C)cc(OC)c1OC         2680 nM

Now turn to the next molecule.
So, "COc1cc(-c2cncc3c2CCOc2cc(N4CCN(C)CC4)ccc2-3)cc(OC)c1OC" ? Its concentration at 4 h was 393 nM

* * *

Field: concentration at 4 h. Provide a value for each of the compounds that follow.
method.notes: Drug concentration in NOD-SCID mouse brain at 10 mg/kg, po measured at 4 hrs by LC-MS/MS analysis
Type: ADME, organism-based
stated.conditions: read-out: Ct

Check out these entries, answers already filled in.
                           substance_smiles  reported_value
0  COc1cc(-c2cncc3c2CCOc2cc(N4CCN(C)CC4)ccc2-3)cc(OC)c1OC         1470 nM
1  COc1cc(-c2cncc3c2CN(C)Cc2cc(N4CCN(C)CC4)ccc2-3)cc(OC)c1OC         3250 nM

Switching to the query record.
So, "COc1cc(-c2cncc(-c3ccc(N4CCNCC4)cc3)c2C)cc(OC)c1OC" ? Its concentration at 4 h was 888 nM

* * *

measured.target: Activin receptor type-1 (Homo sapiens, UniProt Q04771)
Sequence (Q04771 whole entry): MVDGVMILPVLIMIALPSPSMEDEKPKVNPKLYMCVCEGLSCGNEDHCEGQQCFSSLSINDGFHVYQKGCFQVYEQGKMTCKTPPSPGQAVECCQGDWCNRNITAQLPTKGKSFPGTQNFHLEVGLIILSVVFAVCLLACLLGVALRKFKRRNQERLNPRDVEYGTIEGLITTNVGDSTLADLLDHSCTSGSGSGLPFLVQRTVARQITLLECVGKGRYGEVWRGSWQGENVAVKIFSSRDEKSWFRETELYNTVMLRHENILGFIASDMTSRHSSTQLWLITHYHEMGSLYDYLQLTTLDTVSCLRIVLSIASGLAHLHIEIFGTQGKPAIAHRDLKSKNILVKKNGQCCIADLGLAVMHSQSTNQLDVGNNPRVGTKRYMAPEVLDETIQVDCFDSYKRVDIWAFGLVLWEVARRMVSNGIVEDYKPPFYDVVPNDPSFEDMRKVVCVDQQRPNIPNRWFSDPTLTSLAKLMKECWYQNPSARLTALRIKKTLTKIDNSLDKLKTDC
method.notes: Inhibition of N-terminal GST-his6 tagged human recombinant ALK2 (145 to 509 residues) expressed in Sf9 insect cells in presence of ATP by radiometric kinase assay
Provide the reported log10 IC50 of each item.
Values below are the log10 of the recorded IC50, with nM as the unit.

Recorded results for 5 compounds are shown here.
>>> print(df.to_string())
                           substance_smiles  measurement_type  reported_value
0  COc1cc(-c2cncc3c2COCc2cc(N4CCNCC4)ccc2-3)cc(OC)c1OC        log10 IC50            0.30
1  COc1cc(-c2cncc3c2CCOc2cc(N4CCN(C)CC4)ccc2-3)cc(OC)c1OC        log10 IC50            0.30
2  COc1cc(-c2cncc3c2COc2cc(N4CCN(C)CC4)ccc2-3)cc(OC)c1OC        log10 IC50            1.11
3  COc1cc(-c2cncc3c2COCc2cc(N4CCN(C)CC4)ccc2-3)cc(OC)c1OC        log10 IC50            0.48
4  COc1cc(-c2cncc3c2oc2cc(N4CCN(C)CC4)ccc23)cc(OC)c1OC        log10 IC50            2.78

For each of the compounds below, state log10 IC50.
1. COc1cc(-c2cncc3c2CN(C)Cc2cc(N4CCN(C)CC4)ccc2-3)cc(OC)c1OC
2. COc1cc(-c2cncc3c2CN(C)Cc2cc(N4CCNCC4)ccc2-3)cc(OC)c1OC
3. COc1cc(-c2cncc3c2CCOc2cc(N4CCNCC4)ccc2-3)cc(OC)c1OC

Result:
1. 0.85
2. 0.48
3. 0.30

* * *

measured.target: Activin receptor type-1 (Homo sapiens, UniProt Q04771)
Sequence (Q04771 whole entry): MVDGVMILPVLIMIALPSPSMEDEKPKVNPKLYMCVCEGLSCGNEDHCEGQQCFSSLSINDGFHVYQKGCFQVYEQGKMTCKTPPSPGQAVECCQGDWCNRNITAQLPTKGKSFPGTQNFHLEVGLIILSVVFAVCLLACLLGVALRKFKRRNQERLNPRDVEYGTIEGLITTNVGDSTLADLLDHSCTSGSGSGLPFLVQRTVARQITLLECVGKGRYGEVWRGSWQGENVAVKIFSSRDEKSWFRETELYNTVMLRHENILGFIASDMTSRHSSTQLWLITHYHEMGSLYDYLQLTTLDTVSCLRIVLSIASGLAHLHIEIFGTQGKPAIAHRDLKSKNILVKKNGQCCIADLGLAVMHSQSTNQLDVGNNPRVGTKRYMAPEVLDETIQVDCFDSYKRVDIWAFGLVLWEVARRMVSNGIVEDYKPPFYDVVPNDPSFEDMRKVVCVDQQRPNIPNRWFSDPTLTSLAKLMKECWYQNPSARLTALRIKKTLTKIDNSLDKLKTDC
method.notes: Inhibition of ALK2 in human HEK293 cells using NanoGlo as substrate incubated for 2 hrs by NanoBRET assay
Assay type: cell-based
The label Met is reserved for IC50 strictly under 20 nM; Not met covers values equal to or above it.

In [3]: df
Out[3]:
                           substance_smiles  label_class
0  COc1cc(-c2cncc3c2COCc2cc(N4CCN(C)CC4)ccc2-3)cc(OC)c1OC          Met
1  COc1cc(-c2cncc3c2COc2cc(N4CCN(C)CC4)ccc2-3)cc(OC)c1OC      Not met
2  COc1cc(-c2cncc3c2COCc2cc(N4CCNCC4)ccc2-3)cc(OC)c1OC          Met
3  COc1cc(-c2cncc3c2CCOc2cc(N4CCN(C)CC4)ccc2-3)cc(OC)c1OC          Met

Request: Dear colleague, could you confirm whether IC50 of "COc1cc(-c2cncc3c2CCOc2cc(N4CCNCC4)ccc2-3)cc(OC)c1OC" falls below 20 nM? Thanks.
Result: Met

* * *

What concentration at 2 h was measured for each of the following?
method.notes: Drug concentration in NOD-SCID mouse plasma at 25 mg/kg, po measured at 2 hrs by LC-MS/MS analysis
Assay type: ADME, organism-based
One number for each entry, in nM.

Before answering, review these 4 worked examples.
>>> df
                           substance_smiles      measurement_type  reported_value
0  COc1cc(-c2cncc(-c3ccc(N4CCNCC4)cc3)c2C)cc(OC)c1OC  concentration at 2 h            7490
1  COc1cc(-c2cncc3c2CCOc2cc(N4CCN(C)CC4)ccc2-3)cc(OC)c1OC  concentration at 2 h            3530
2  COc1cc(-c2cncc3c2CN(C)Cc2cc(N4CCNCC4)ccc2-3)cc(OC)c1OC  concentration at 2 h             523
3  COc1cc(-c2cncc3c2CN(C)Cc2cc(N4CCN(C)CC4)ccc2-3)cc(OC)c1OC  concentration at 2 h             277

Here's the next entry for you.
Entry under test: "COc1cc(-c2cncc3c2CCOc2cc(N4CCNCC4)ccc2-3)cc(OC)c1OC" . Its concentration at 2 h was 1120

* * *

method.notes: Metabolic stability in human liver microsome at 1 uM in presence of NADPH-regeneration system incubated for 60 mins by LC/MS analysis
Assay type: ADME
stated.conditions: liver microsomes, read-out: Stability
measurement.type: remaining at 1 h, 1 µM (%)
Give bare numbers, in %.

Example results:
>>> print(df.to_string())
                           substance_smiles  reported_value
0  COc1cc(-c2cncc3c2CCOc2cc(N4CCNCC4)ccc2-3)cc(OC)c1OC            66.5
1  COc1cc(-c2cncc3c2oc2cc(N4CCN(C)CC4)ccc23)cc(OC)c1OC            37.4
2  COc1cc(-c2cncc3c2CCOc2cc(N4CCN(C)CC4)ccc2-3)cc(OC)c1OC            21.2

Hey, quick one: what's remaining at 1 h, 1 µM for each of these?
1. COc1cc(-c2cncc3c2CN(C)Cc2cc(N4CCN(C)CC4)ccc2-3)cc(OC)c1OC
2. COc1cc(-c2cncc3c2COc2cc(N4CCN(C)CC4)ccc2-3)cc(OC)c1OC
3. COc1cc(-c2cncc3c2CN(C)Cc2cc(N4CCNCC4)ccc2-3)cc(OC)c1OC
4. COc1cc(-c2cncc3c2COCc2cc(N4CCN(C)CC4)ccc2-3)cc(OC)c1OC
5. COc1cc(-c2cncc3c2COCc2cc(N4CCNCC4)ccc2-3)cc(OC)c1OC

Result:
1: 58.3; 2: 34.8; 3: 73.2; 4: 29.7; 5: 62.3
